study-target: Cytochrome P450 3A4 (Homo sapiens) (UniProt P08684)
Sequence (P08684 whole entry, looked up): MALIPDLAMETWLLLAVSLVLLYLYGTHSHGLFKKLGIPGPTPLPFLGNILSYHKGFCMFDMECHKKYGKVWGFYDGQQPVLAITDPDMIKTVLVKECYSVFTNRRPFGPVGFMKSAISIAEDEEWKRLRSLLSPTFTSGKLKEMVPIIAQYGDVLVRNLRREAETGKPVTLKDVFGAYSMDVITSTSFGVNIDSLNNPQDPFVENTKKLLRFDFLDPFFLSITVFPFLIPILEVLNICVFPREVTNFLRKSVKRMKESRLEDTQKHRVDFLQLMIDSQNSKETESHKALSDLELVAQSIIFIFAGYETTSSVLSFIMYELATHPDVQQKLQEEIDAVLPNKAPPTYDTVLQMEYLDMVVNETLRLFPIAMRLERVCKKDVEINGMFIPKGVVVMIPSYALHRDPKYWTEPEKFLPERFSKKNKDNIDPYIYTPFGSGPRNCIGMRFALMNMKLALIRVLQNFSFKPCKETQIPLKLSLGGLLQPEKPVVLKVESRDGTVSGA
assay-text: qHTS Assay for Inhibitors and Substrates of Cytochrome P450 3A4 (AID 884); note: % is set by controls: 0 for no effect and ±100 for the full control effect; nearly all actives have a fitted effect of over 50% in size
reported-conditions: recombinant CYP3A4, Luciferin-PPXE luminescence; series mostly up to 57.1 µM
Inconclusive results are not listed. Calls of active or inactive are those of the source. Calls come from the whole dose curve; as a rule, active = well fitted inhibition curve with a large enough effect; inconclusive = small, poorly fitted or top-dose-only effect; inactive = no such curve, though single readings can be large or run the other way. Peptide text beside a SMILES is read from it.
endpoint-label: outcome

Known results for molecules:
Nc1nc2[nH]c(=O)[nH]c2c(=O)[nH]1 : inactive
CC(=O)N[C@H](Cc1c[nH]c2ccccc12)C(N)=O : inactive
CC(=O)OC1CC2C(C)(C)C(=O)C3OC3[C@]2(C)C2CC[C@@]3(C)C(c4ccoc4)OC(=O)C4OC43[C@]12C (some centres undefined) : inactive
CCC(CO)NCCNC(CC)CO (centres undefined) : inactive
CC(C)CC(NC(=O)CN)C(=O)NC(Cc1ccccc1)C(=O)O (stereo not drawn) (H-Gly-Leu-Phe-OH; configuration not given here) : inactive

# input Which measured outcome value corresponds to COC(=O)/C(C)=C/CC12OC(C)(C)C3CC(C=C4C(=O)c5cc6c(c(CCC(C)(C)Cl)c5OC431)OC1(C)CCC(=C(C)C)C6C1)C2=O (centres undefined) ?
# output inactive

# input Which measured outcome value corresponds to COC(=O)CCC(C)C1CCC2C3CC[C@H]4CC(O)CC[C@@]4(C)C3CC(O)[C@]12C (some centres undefined) ?
# output inactive

# input Which measured outcome value corresponds to CC(=O)OC1CC[C@@]2(C)C3=CC(=O)[C@]4(C)C(CC5OC6(OCC(C)CC6Br)C(C)C54)C3CC[C@H]2C1 (some centres undefined) ?
# output inactive

# input Which measured outcome value corresponds to C/C1=C/CC(C)(C)/C=C/C/C(C)=C/CC1 ?
# output inactive

====

assay-text: qHTS Assay for Lipid Storage Modulators (AID 1519)
reported-conditions: Drosophila S3 cells, BODIPY lipid droplet/cell ratio, laser cytometry; measured here: cell count channel max response; cells loaded with oleic acid
Inconclusive results are not listed.
Measured max response, listed per entry.
# number only, unit % dropped from output

Known results for molecules:
CC1(C)OC2CO[C@]3(COS(N)(=O)=O)OC(C)(C)OC3C2O1 (stereo partly drawn) : 7.1
COc1ccc2c(c1)OCC(Cc1ccc(OC)c(O)c1)C2=O (stereo not drawn) : 3.51
O=c1[nH]c(=O)n([C@@H]2C[C@H](O)[C@H](CO)O2)cc1C(F)(F)F : -7.04

# input Which measured max response value corresponds to CC[C@@]12CCCN3CCc4c(n(c5ccccc45)[C@](O)(C(=O)OC)C1)C32 (stereo partly drawn) ?
# output 25.6

# input Which measured max response value corresponds to COC(=O)C1=CO[C@@H](O[C@H]2OC(CO)C(O)C(O)C2O)C2C1CC(O)C2C (stereo partly drawn) ?
# output 11.3

# input Which measured max response value corresponds to NS(=O)(=O)c1cc2c(cc1C(F)(F)F)N[C@H](Cc1ccccc1)NS2(=O)=O ?
# output -8.69

# input Which measured max response value corresponds to NCCC(=O)N[C@H](Cc1cnc[nH]1)C(=O)O ?
# output 11.4

# input Which measured max response value corresponds to OCC1OC(n2cnc3c(NCc4ccco4)ncnc32)C(O)C1O (stereo not drawn) ?
# output -4.44

# input Which measured max response value corresponds to C#C[C@@]1(O)CCC2C3CCc4cc(O)ccc4C3CC[C@@]21C (stereo partly drawn) ?
# output 1.86

====

assay-text: qHTS Assay for Lipid Storage Modulators (AID 1519)
reported-conditions: Drosophila S3 cells, BODIPY lipid droplet/cell ratio, laser cytometry; measured here: cell count channel max response; cells loaded with oleic acid
Records with an inconclusive call do not appear.
endpoint-label: max response (%)
# number only, unit % dropped from output

Known results for compounds:
COc1cc(C2c3cc4c(cc3C(O[C@@H]3OC5COC(c6cccs6)OC5C(O)C3O)C3COC(=O)C23)OCO4)cc(OC)c1O (stereo partly specified) : 22.3
CC1CCC2(C(=O)O)CCC3(C)C(=CCC4C3(C)CCC3[C@@]4(C)CC(O)C(O)[C@@]3(C)CO)C2C1C (stereo partly specified) : 22.9
COC1OC(CO)C(OC2OC(C(=O)O)C(OC3OC(COS(=O)(=O)O)C(OC4OC(C(=O)O)C(OC5OC(CO)C(OC6OC(C(=O)O)C(OC7OC(COS(=O)(=O)O)C(OC8OC(C(=O)O)=C[C@H](O)C8OS(=O)(=O)O)C(O)C7NC(C)=O)[C@@H](O)C6O)C(O)C5NC(C)=O)[C@@H](O)C4O)C(O)C3NC(C)=O)[C@@H](O)C2O)C(O)C1NC(C)=O (stereo partly specified) : -2.95

# input Which measured max response value corresponds to Clc1cnccn1 ?
# output 8.49

# input Which measured max response value corresponds to NC(CCC(=O)N[C@@H](CS)C(=O)NCC(=O)O)C(=O)O (stereo partly specified) ?
# output 11.9

# input Which measured max response value corresponds to CC[C@H](CC[C@H](C)[C@@H]1CC[C@@H]2[C@H]3CC=C4C[C@@H](O)CC[C@]4(C)[C@H]3CC[C@]21C)C(C)C ?
# output -14.8

# input Which measured max response value corresponds to CC(C)(C)CC(C)(C)c1ccc(OCOCCOCCO)c(Cc2cc(C(C)(C)CC(C)(C)C)cc(Cc3cc(C(C)(C)CC(C)(C)C)ccc3OCOCCOCCO)c2OCOCCOCCO)c1 ?
# output -10.1

# input Which measured max response value corresponds to COc1cc(O)cc(OC)c1OC ?
# output -14

# input Which measured max response value corresponds to COc1ccc(-c2cc(=O)c3c(O)cc(O)cc3o2)cc1 ?
# output 4.93

# input Which measured max response value corresponds to CC(=C(CCOP(=O)(O)O)SC(=O)c1ccccc1)N(C=O)Cc1cnc(C)nc1N ?
# output -3.81

# input Which measured max response value corresponds to C[C@@]12CC3CC(N)(C1)C[C@@](C)(C3)C2 ?
# output -3.32

# input Which measured max response value corresponds to Fc1ccc(Nc2nc(-c3cccnc3)nc3ccccc23)cc1 ?
# output -6.31

# input Which measured max response value corresponds to CC1(C)OC2C(CO)OC(n3cnc4c(=O)[nH]c(N)nc43)C2O1 (stereo unspecified) ?
# output 24

# input Which measured max response value corresponds to C#CCCCCCCCCCCCC(O)CC(O)CO (stereo unspecified) ?
# output 3.34

# input Which measured max response value corresponds to Nc1nc2c([nH]c(=S)n2C2OC(CO)C(O)C2O)c(=O)[nH]1 (stereo unspecified) ?
# output 0.955

# input Which measured max response value corresponds to CC(=O)OC1C[C@]2(C)C(C(C)=O)CCC2C2CCC3=CC(=O)CC[C@@]3(C)C12 (stereo partly specified) ?
# output 25.2

# input Which measured max response value corresponds to CC(=O)OC1CC2C(C)(C)C(O)CC[C@@]2(C)C2CC[C@@]3(C)C(c4ccoc4)OC(=O)C4OC43[C@]12C (stereo partly specified) ?
# output -7.63

# input Which measured max response value corresponds to COc1cc(C2Oc3cc(C4Oc5cc(O)cc(O)c5C(=O)C4O)ccc3OC2CO)ccc1O (stereo unspecified) ?
# output 5.37

# input Which measured max response value corresponds to COc1ccc(-c2coc3cc(OC(C)=O)cc(OC(C)=O)c3c2=O)cc1 ?
# output 3.34

# input Which measured max response value corresponds to C[C@@H](C(=O)O)c1ccc(C(=O)c2ccccc2)s1 ?
# output 1.62

# input Which measured max response value corresponds to CC(=O)N1CCCC1C(=O)O (stereo unspecified) ?
# output 1.45

# input Which measured max response value corresponds to O=C(O)C1OC(O)C(O)C(O)C1O (stereo unspecified) ?
# output -1.15

# input Which measured max response value corresponds to CC1CC[C@@]2(OC1)OC1CC3C4CC=C5CC(O)CC[C@@]5(C)C4CC[C@]3(C)C1C2C (stereo partly specified) ?
# output 10.1

====

System: PAD
assay-text: qHTS profiling for inhibitors of Plasmodium falciparum proliferation (AID 504749); note: nearly all actives have a fitted effect of over 60% in size
reported-conditions: P. falciparum in erythrocytes, SYBR Green DNA, 72 h; series mostly up to 12.8 µM
Results filed as inconclusive are left out. Active and inactive are the calls of the source. Calls follow the shape of the dose curve; as a rule, active = well fitted inhibition curve with a large enough effect; inconclusive = small, poorly fitted or top-dose-only effect; inactive = flat fitted curve, though single readings scatter.
API: response.call in active, inactive

Solved entries:
CC(=O)OCC(=O)[C@@]1(O)CC[C@@H]2[C@H]3CCC4=CC(=O)C=C[C@]4(C)[C@]3(F)[C@@H](O)C[C@@]21C : inactive
CCOC(=O)O[C@]1(C(=O)COC(=O)CC)CC[C@@H]2[C@@H]3CCC4=CC(=O)C=C[C@@]4(C)[C@H]3[C@H](O)C[C@]21C : inactive
OCC1OC(n2cnc3c(=S)nc[nH]c32)C(O)C1O (stereo not given) : inactive
CCN[C@@H]1C[C@H](N)[C@H](O[C@H]2OC(CN)=CC[C@H]2N)[C@@H](O)[C@H]1O[C@H]1OC[C@@](C)(O)[C@@H](NC)[C@@H]1O : inactive
COC1C=CO[C@@]2(C)Oc3c(C)c(O)c4c(O)c(c5c(nc6cc(C)ccn65)c4c3C2=O)NC(=O)/C(C)=C\C=CC(C)C(O)[C@@H](C)C(O)C(C)[C@@H](OC(C)=O)C1C (stereo not given in full) : active

# input Record lookup: outcome of this test for COc1ccc(-c2cc(=O)c3c(O)cc(O[C@H]4OC(COC5OC(C)C(O)C(O)[C@H]5O)C(O)C(O)C4O)cc3o2)cc1O (stereo not given in full) ?
# output inactive

# input Record lookup: outcome of this test for CC(=O)N[C@@H]1C(O)OC(CO)C(O)C1O (stereo not given in full) ?
# output inactive

# input Record lookup: outcome of this test for C[C@@H]1O[C@H](O[C@@H]2\C=C/C=C\C=C/C=C\C[C@H](C)OC(=O)/C=C\[C@H]3O[C@@H]3C[C@H](O)C[C@]3(O)C[C@@H](O)[C@@H](C(=O)O)[C@H](C2)O3)[C@@H](O)[C@H](N)[C@@H]1O (stereo in doubt) ?
# output inactive

# input Record lookup: outcome of this test for CO[C@]1(NC(=O)C2SC(=C(C(N)=O)C(=O)O)S2)C(=O)N2C(C(=O)O)=C(CSc3nnnn3C)CS[C@H]21 (stereo not given in full) ?
# output inactive

# input Record lookup: outcome of this test for CC(C)(C)NC[C@H](O)COc1cccc2c1CCC(=O)N2 ?
# output inactive
